- System: K-562 leukemia
- methodSummary: NCI tumour cell line growth inhibition, 48 h
quantityMeasured: TGI

{"molecule": "CC(C)(C)OC(=O)CN1CCNCCN(CC(=O)OC(C)(C)C)CC1", "testTarget": "K-562 leukemia", "reading": "> 100 µM"}
{"molecule": "Cc1cc(C2(c3cc(C)c(O)c(C(=O)O)c3)OS(=O)(=O)c3ccccc32)cc(C(=O)O)c1O", "testTarget": "K-562 leukemia", "reading": "> 100 µM"}
{"molecule": "COC(=O)[C@@H]1CCCN1C(=O)[C@@H]1CCCN1C(=O)[C@@H](Cc1c[nH]c2ccccc12)NC(=S)Nc1cc(C(F)(F)F)cc(C(F)(F)F)c1", "testTarget": "K-562 leukemia", "reading": "> 100 µM"}
{"molecule": "Nc1nnc(-c2ccco2)c(-c2ccco2)n1", "testTarget": "K-562 leukemia", "reading": "> 100 µM"}
{"molecule": "S=c1ssc(Sc2ccccn2)c1Cl", "testTarget": "K-562 leukemia", "reading": "14.5 µM"}
{"molecule": "CN1C(=O)C(O)CC1c1cccc(F)c1 (stereo unspecified)", "testTarget": "K-562 leukemia", "reading": "> 100 µM"}
{"molecule": "O=C(CC(C(=O)c1ccsc1)c1ccccc1)c1cccs1 (stereo unspecified)", "testTarget": "K-562 leukemia", "reading": "> 100 µM"}
{"molecule": "COc1cc(/C=C(/c2ccccc2)[N+](=O)[O-])c(OC)c2c1OCO2", "testTarget": "K-562 leukemia", "reading": "13.7 µM"}
{"molecule": "NCc1ccc(-n2c(-c3nonc3N)nc3cnccc32)cc1", "testTarget": "K-562 leukemia", "reading": "> 25 µM"}
{"molecule": "O=C(NN1C(=O)CSC1c1ccc(Cl)cc1)c1[nH]c2ccc(F)cc2c1-c1ccccc1 (stereo unspecified)", "testTarget": "K-562 leukemia", "reading": "9.51 µM"}

Now consider the entry below.
Param item = Cc1c2ccncc2c(C)c2c1[nH]c1ccc(OC(C)(C)C)cc12 ; retrieve measured TGI. 4.93 µM

---

- Tested on: SNB-75 CNS
- methodSummary: NCI tumour cell line growth inhibition, 48 h
Measured TGI by item

Below are worked cases with known answers.
{"molecule": "CCN1C(=O)C(=Cc2ccc(-c3ccccc3)cc2)C(=O)N(CC)C1=S", "TGI": "> 100 µM"}
{"molecule": "O=C1CC(CC(OCc2ccccc2)C(COCc2ccccc2)OCc2ccccc2)CC(=O)N1 (stereo not given)", "TGI": "> 100 µM"}

Param item = O=C1c2ccccc2C(=O)C1C(c1ccc([N+](=O)[O-])cc1)C1C(=O)c2ccccc2C1=O ; retrieve measured TGI. > 100 µM

Param item = Cn1cc(-c2ccc3c(c2)CCN3C(=O)Cc2cccc(C(F)(F)F)c2)c2c(N)ncnc21 ; retrieve measured TGI. 19 µM

Param item = OC(c1ccccc1)(c1ccccc1)c1cccnc1 ; retrieve measured TGI. > 100 µM

---

- Tested on: K-562 leukemia
- methodSummary: NCI tumour cell line growth inhibition, 48 h
Measured TGI by item

{"molecule": "O=C1CC2C(=O)N(Cc3ccccc3)C1C(S(=O)(=O)c1ccccc1)C2S(=O)(=O)c1ccccc1 (stereo unspecified)", "testTarget": "K-562 leukemia", "reading": "6.66 µM"}
{"molecule": "N/N=C(\\Cc1ccccc1)NN=C(N)N", "testTarget": "K-562 leukemia", "reading": "> 100 µM"}
{"molecule": "Cc1cc(C)c(C)c(-n2[nH]c(=O)n(C)c2=O)c1C", "testTarget": "K-562 leukemia", "reading": "> 100 µM"}

API: value(readout=TGI, system=K-562 leukemia) for record O=C1CCC[C@H]2O[C@@H](COCc3ccccc3)C[C@@H]12 > 100 µM

API: value(readout=TGI, system=K-562 leukemia) for record O=C1C(=O)N(C2CCCCC2)C(=S)N1C1CCCCC1 > 100 µM

API: value(readout=TGI, system=K-562 leukemia) for record Fc1ccc(Nc2nc(NCCNc3ccnc4cc(Cl)ccc34)nc(N3CCOCC3)n2)cc1 10.3 µM

---

Measured TGI by item
- System: A549 NSCLC
- methodSummary: NCI tumour cell line growth inhibition, 48 h

{"molecule": "COC(=O)[C@@H]1CCCN1C(=O)[C@@H]1CCCN1C(=O)[C@@H](Cc1c[nH]c2ccccc12)NC(=S)Nc1cc(C(F)(F)F)cc(C(F)(F)F)c1", "testTarget": "A549 NSCLC", "reading": "> 100 µM"}
{"molecule": "CC1=CC(=O)C(C(C)=Nc2ccccc2Cl)C(=O)O1 (centres undefined)", "testTarget": "A549 NSCLC", "reading": "> 100 µM"}
{"molecule": "Cc1cc(C2(c3cc(C)c(O)c(C(=O)O)c3)OS(=O)(=O)c3ccccc32)cc(C(=O)O)c1O", "testTarget": "A549 NSCLC", "reading": "> 100 µM"}

Param item = CN(C)C(=C1c2cc([N+](=O)[O-])ccc2-c2ccc([N+](=O)[O-])cc21)N(C)C ; retrieve measured TGI. > 100 µM

---

- Test system: T-47D breast
- methodSummary: NCI tumour cell line growth inhibition, 48 h
quantityMeasured: TGI

Below are worked cases with known answers.
{"compound": "O=C1CCC[C@H]2O[C@@H](COCc3ccccc3)C[C@@H]12", "TGI": "> 100 µM"}
{"compound": "O=C(CC(C(=O)c1ccsc1)c1ccccc1)c1cccs1 (stereo unspecified)", "TGI": "45.3 µM"}
{"compound": "CC(=O)OC1C2(CC3N4C(=O)C5(CO)SSC4(CC31O)C(=O)N5C)OC(C)C(C)(C)C2=O (stereo unspecified)", "TGI": "0.0782 µM"}
{"compound": "Clc1ccc2nc(Oc3ccccc3)cnc2c1", "TGI": "> 100 µM"}

Param item = Cc1cc(NS(=O)(=O)c2ccc(Nc3c4ccccc4nc4ccc(C(=O)Nc5ccc(S(=O)(=O)N=C(N)N)cc5)cc34)cc2)no1 ; retrieve measured TGI. > 100 µM

Param item = O=c1oc2ccc(Cl)cc2c(=O)n1-c1ccc(I)cc1F ; retrieve measured TGI. 1.11 µM

Param item = CC(C)(Br)C(=O)/C=C/c1ccccc1 ; retrieve measured TGI. > 52 µM

Param item = NCc1ccc(-n2c(-c3nonc3N)nc3cnccc32)cc1 ; retrieve measured TGI. > 25 µM

Param item = S=c1ssc(Sc2ccccn2)c1Cl ; retrieve measured TGI. 34.6 µM

Param item = N#Cc1c2c([nH]c(=O)c1C#N)CCCC2 ; retrieve measured TGI. > 100 µM

Param item = Cc1ccc(C(=O)C#Cc2cn(C3CC(O)C(CO)O3)c(=O)[nH]c2=O)cc1 (stereo unspecified) ; retrieve measured TGI. 45 µM

---

- System: SK-OV-3 ovarian
- methodSummary: NCI tumour cell line growth inhibition, 48 h
Measured GI50 by item

Param item = COc1ccccc1-c1c(C)nn2c(NCc3ccccn3)cc(C)nc12 ; retrieve measured GI50. > 50000 nM

Param item = Cn1cc(-c2ccc3c(c2)CCN3C(=O)Cc2cccc(C(F)(F)F)c2)c2c(N)ncnc21 ; retrieve measured GI50. 1260 nM

Param item = O=C(NN1C(=O)CSC1c1ccc(Cl)cc1)c1[nH]c2ccc(F)cc2c1-c1ccccc1 (centres undefined) ; retrieve measured GI50. 7250 nM

Param item = CCCCC[C@H]1C/C=C2/C(=O)C(Cl)=C[C@@H]2C/C=C\CCCC(=O)O[C@@H](CCCCC)C/C=C2/C(=O)C(Cl)=C[C@@H]2C/C=C\CCCC(=O)O1 ; retrieve measured GI50. 966 nM

---

- Tested on: HOP-62 NSCLC
- methodSummary: NCI tumour cell line growth inhibition, 48 h
Measured TGI by item

{"compound": "COC(=O)[C@@H]1CCCN1C(=O)[C@@H]1CCCN1C(=O)[C@@H](Cc1c[nH]c2ccccc12)NC(=S)Nc1cc(C(F)(F)F)cc(C(F)(F)F)c1", "reading": "> 100 µM"}

Param item = CC1=NN(C(=O)c2ccc(Cl)cc2)C(=O)/C1=C/c1cccc([N+](=O)[O-])c1 ; retrieve measured TGI. > 100 µM

Param item = CN1CN(c2ccccc2)C2(CCN(CCCC(=O)c3cccs3)CC2)C1=O ; retrieve measured TGI. 37.4 µM

Param item = COC(=O)C(Cc1nc2ccc(Cl)cc2[nH]c1=O)C(=O)C(=O)Nc1ccccc1[N+](=O)[O-] (stereo not given) ; retrieve measured TGI. > 100 µM

---

- System: IGROV1 ovarian
- methodSummary: NCI tumour cell line growth inhibition, 48 h; in the data active = GI50 below about 0.43 µM; inactive = the rest
Respond only with the outcome that fits, drawn from 1 = active, 0 = inactive

Answered examples (8):
{"compound": "C=C[C@]1(C)C=C2C(=O)[C@@]3(O)OC[C@@]4(CCCC(C)(C)C43O)C2(O)C(O)C1 (some centres undefined)", "testTarget": "IGROV1 ovarian", "classAssignment": 0}
{"compound": "Cc1c(C)c2ccc(OC/C=C3\\CCC(=O)O3)cc2oc1=O", "testTarget": "IGROV1 ovarian", "classAssignment": 0}
{"compound": "N#CC1C(N)=NNC12Nc1ccccc1N2 (centres undefined)", "testTarget": "IGROV1 ovarian", "classAssignment": 0}
{"compound": "Cc1ccc2c(c1)ncn2-c1ncnc2c1CC(C)c1ccccc1N2C (centres undefined)", "testTarget": "IGROV1 ovarian", "classAssignment": 1}
{"compound": "Fc1ccc(Nc2nc(NCCNc3ccnc4cc(Cl)ccc34)nc(N3CCOCC3)n2)cc1", "testTarget": "IGROV1 ovarian", "classAssignment": 0}
{"compound": "COc1ccc2c(c1)C(=O)c1c-2n(CCCN2CCOCC2)c(=O)c2ccccc12", "testTarget": "IGROV1 ovarian", "classAssignment": 0}
{"compound": "CCN1C(=O)N(CC)C2C1NN=c1s/c(=C3\\C(=O)N(C)c4ccccc43)c(=O)n12 (centres undefined)", "testTarget": "IGROV1 ovarian", "classAssignment": 0}
{"compound": "CN(C)c1ccc(N=Nc2c([O-])ccc3ccccc23)cc1.[C-]#[O+].[C-]#[O+].[Ir]", "testTarget": "IGROV1 ovarian", "classAssignment": 0}

Please share the test call associated with COc1cc2cc(Oc3ccc(NC(=O)c4ccc(Cl)c(C(F)(F)F)c4)cc3)c(C)nc2cc1OC . 0

Taken from PubChem BioAssay (NCI).
